Method: FRET assay of NBD-Toc transfer from α-TTP variants to SUVs
Type: biochemical
Conditions Used: PC vesicles; 0.225 μM NBD-Toc, 2 μM α-TTP, 100 μM vesicles; room temperature
Value Type: Rate of NBD-Toc transfer to SUV, Rate (s⁻¹)
Write it as a number; the unit s⁻¹ goes unstated.

F169A: α-TTP mutant, Phe169 to Ala (protein, UniProt P49638 1-278, looked up, variant F169A) Alpha-tocopherol transfer …: MAEARSQPSAGPQLNALPDHSPLLQPGLAALRRRAREAGVPLAPLPLTDSFLLRFLRARDFDLDLAWRLLKNYYKWRAECPEISADLHPRSIIGLLKAGYHGVLRSRDPTGSKVLIYRIAHWDPKVFTAYDVFRVSLITSELIVQEVETQRNGIKAIFDLEGWQFSHAAQITPSVAKKIAAVLTDSFPLKVRGIHLINEPVIFHAVFSMIKPFLTEKIKERIHMHGNNYKQSLLQHFPDILPLEYGGEEFSMEDICQEWTNFIMKSEDYLSSISESIQ :: 0.067

Please turn your attention to the following entry.
Problem: Could you share which Rate of NBD-Toc transfer to SUV, Rate value was measured for R192H: naturally-occurring α-TTP mutant associated with heritable mild vitamin E deficiency in humans (protein, UniProt P49638 1-278, looked up, variant R192H) Alpha-tocopherol transfer …: MAEARSQPSAGPQLNALPDHSPLLQPGLAALRRRAREAGVPLAPLPLTDSFLLRFLRARDFDLDLAWRLLKNYYKWRAECPEISADLHPRSIIGLLKAGYHGVLRSRDPTGSKVLIYRIAHWDPKVFTAYDVFRVSLITSELIVQEVETQRNGIKAIFDLEGWQFSHAFQITPSVAKKIAAVLTDSFPLKVHGIHLINEPVIFHAVFSMIKPFLTEKIKERIHMHGNNYKQSLLQHFPDILPLEYGGEEFSMEDICQEWTNFIMKSEDYLSSISESIQ ?
Result: 0.106
